- Tested on: Mycobacterium tuberculosis
- method_notes: Antitubercular activity against Mycobacterium tuberculosis H37Rv ATCC 27294 after 28 days by agar dilution method
- Format: functional
- measurement_parameters: H37Rv ATCC 27294, 672 h
Reported MIC values follow for various molecules
reported_metric: MIC (µg/mL)

smiles_data: O=C1Oc2ccccc2[C@@]12[C@H](c1ccccc1)[C@H]1CSCN1[C@]21C(=O)Nc2ccccc21
reported_metric: MIC
value_modifier: =
measured_number: 25
--
smiles_data: COc1ccc([C@@H]2[C@H]3CSCN3[C@]3(C(=O)Nc4ccccc43)[C@@]23C(=O)Oc2ccccc23)cc1
reported_metric: MIC
value_modifier: =
measured_number: 1.56
--
smiles_data: O=C1Oc2ccccc2[C@@]12[C@H](c1ccccc1)[C@H]1CSCN1[C@]21C(=O)Nc2ccc(Br)cc21
reported_metric: MIC
value_modifier: =
measured_number: 25
--
smiles_data: Cc1ccc([C@@H]2[C@H]3CSCN3[C@]3(C(=O)Nc4ccc([N+](=O)[O-])cc43)[C@@]23C(=O)Oc2ccccc23)cc1
reported_metric: MIC
value_modifier: >
measured_number: 25
--
smiles_data: COc1ccc([C@@H]2[C@H]3CSCN3[C@]3(C(=O)Nc4ccc([N+](=O)[O-])cc43)[C@@]23C(=O)Oc2ccccc23)cc1
reported_metric: MIC
value_modifier: =
measured_number: 25
--
smiles_data: O=C1Oc2ccccc2[C@@]12[C@H](c1ccc(Cl)cc1)[C@H]1CSCN1[C@]21C(=O)Nc2ccccc21
reported_metric: MIC
value_modifier: =
measured_number: 3.12
--
smiles_data: O=C1Oc2ccccc2[C@@]12[C@H](c1ccc([N+](=O)[O-])cc1)[C@H]1CSCN1[C@]21C(=O)Nc2ccccc21
reported_metric: MIC
value_modifier: =
measured_number: 1.56
